Protocol Description: Half-life measurements in human plasma (HPLC-UV)
Format: in vitro ADME
Conditions Used: Human plasma, 37° C., read-out: Half-Life (converted)
Measured Quantity: half-life at 1 mM (min)
Unit min implied. Number only.

Prompt: Given the entry CC(=O)Oc1cc(C)cc(C)c1C(C)(C)CC(=O)Nc1nc(=O)n([C@@H]2CS[C@H](CO)O2)cc1F [Compound 25] , report its measured half-life at 1 mM.
Response: 24

---

Protocol Description: Prodrug hydrolysis in human plasma
Type: in vitro ADME
Conditions Used: 37° C., depletion of starting material, read-out: Human Plasma t1/2
Exercise: for every item that follows, state its recorded half-life at 0.5 mM.
Expressed in h, but write only the number.

Prompt: Report half-life at 0.5 mM for "CCCCOC(=O)Nc1nc(=O)n([C@@H]2CS[C@H](COC(=O)OCCCC)O2)cc1F" please.
Response: 0.987

Prompt: "CCCCCCCCOC(=O)Nc1nc(=O)n([C@@H]2CS[C@H](COC(=O)OCCCCCCCC)O2)cc1F" , same question.
Response: 9.63
